Every entry's value here was drawn from patent US4343790A.

procedure-text: dermal toxicity of granular formulations (dermal LD50), male albino rabbits
conditions-used: rabbit, in vivo, topical or ocular, Table I, 24 h cuff, 14 days observation, O,O-diethyl S-{[(1,1-dimethylethyl)thio]methyl}phosphorodithioate
readout-type: LD50 at 336 h

Ask: Data request, read-out LD50 at 336 h, for "CCOP(=S)(OCC)SCSC(C)(C)C"
Result: 1 to 2 mg/kg
